# experimentalSetup: in n-propanol, 283.15 K
metric: solubility (mole fraction)
One number for each entry.

O=C(N[C@H](C(=O)O)c1ccccc1)OCc1ccccc1 yielded solubility (mole fraction) of 0.0141

* * *

# experimentalSetup: in ethyl acetate, 313.15 K
metric: solubility (mole fraction)
One number for each entry.

O=C(N[C@H](C(=O)O)c1ccccc1)OCc1ccccc1 yielded solubility (mole fraction) of 0.0549

* * *

# experimentalSetup: in methanol, 293.15 K
metric: solubility (mole fraction)
One number for each entry.

O=C(N[C@H](C(=O)O)c1ccccc1)OCc1ccccc1 yielded solubility (mole fraction) of 0.0479

* * *

# experimentalSetup: in methanol, 303.15 K
metric: solubility (mole fraction)
Answers are plain numbers.

O=C(N[C@H](C(=O)O)c1ccccc1)OCc1ccccc1 yielded solubility (mole fraction) of 0.0794

* * *

# experimentalSetup: in 2-butanone, 303.15 K
metric: solubility (mole fraction)
Numbers only.

O=C(N[C@H](C(=O)O)c1ccccc1)OCc1ccccc1 yielded solubility (mole fraction) of 0.0762

* * *

# experimentalSetup: in ethanol, 283.15 K
metric: solubility (mole fraction)
Give bare numbers.

O=C(N[C@H](C(=O)O)c1ccccc1)OCc1ccccc1 yielded solubility (mole fraction) of 0.0235

* * *

# experimentalSetup: in water, 323.15 K
metric: solubility (mole fraction)
Numbers only.

O=C(N[C@H](C(=O)O)c1ccccc1)OCc1ccccc1 yielded solubility (mole fraction) of 6.9e-05

* * *

# experimentalSetup: in water, 313.15 K
metric: solubility (mole fraction)

O=C(N[C@H](C(=O)O)c1ccccc1)OCc1ccccc1 yielded solubility (mole fraction) of 5.7e-05

* * *

# experimentalSetup: in ethyl acetate, 283.15 K
metric: solubility (mole fraction)
Give bare numbers.

O=C(N[C@H](C(=O)O)c1ccccc1)OCc1ccccc1 yielded solubility (mole fraction) of 0.0209

* * *

# experimentalSetup: in acetonitrile, 303.15 K
metric: solubility (mole fraction)

O=C(N[C@H](C(=O)O)c1ccccc1)OCc1ccccc1 yielded solubility (mole fraction) of 0.0143

* * *

# experimentalSetup: in ethyl acetate, 293.15 K
metric: solubility (mole fraction)
Answers are plain numbers.

O=C(N[C@H](C(=O)O)c1ccccc1)OCc1ccccc1 yielded solubility (mole fraction) of 0.0274

* * *

# experimentalSetup: in n-propanol, 293.15 K
metric: solubility (mole fraction)
Answers are plain numbers.

O=C(N[C@H](C(=O)O)c1ccccc1)OCc1ccccc1 yielded solubility (mole fraction) of 0.0231

* * *

# experimentalSetup: in ethanol, 293.15 K
metric: solubility (mole fraction)
One number for each entry.

O=C(N[C@H](C(=O)O)c1ccccc1)OCc1ccccc1 yielded solubility (mole fraction) of 0.0354
